# Assay System: Rat recombinant PDE10A (rPDE10A2) (Rattus norvegicus, UniProt Q9QYJ6)
# Construct: inferred from the Ni metal chelate purification; made in house; host or cells: Sf9 insect cells (baculovirus)
# Sequence (Q9QYJ6 whole entry): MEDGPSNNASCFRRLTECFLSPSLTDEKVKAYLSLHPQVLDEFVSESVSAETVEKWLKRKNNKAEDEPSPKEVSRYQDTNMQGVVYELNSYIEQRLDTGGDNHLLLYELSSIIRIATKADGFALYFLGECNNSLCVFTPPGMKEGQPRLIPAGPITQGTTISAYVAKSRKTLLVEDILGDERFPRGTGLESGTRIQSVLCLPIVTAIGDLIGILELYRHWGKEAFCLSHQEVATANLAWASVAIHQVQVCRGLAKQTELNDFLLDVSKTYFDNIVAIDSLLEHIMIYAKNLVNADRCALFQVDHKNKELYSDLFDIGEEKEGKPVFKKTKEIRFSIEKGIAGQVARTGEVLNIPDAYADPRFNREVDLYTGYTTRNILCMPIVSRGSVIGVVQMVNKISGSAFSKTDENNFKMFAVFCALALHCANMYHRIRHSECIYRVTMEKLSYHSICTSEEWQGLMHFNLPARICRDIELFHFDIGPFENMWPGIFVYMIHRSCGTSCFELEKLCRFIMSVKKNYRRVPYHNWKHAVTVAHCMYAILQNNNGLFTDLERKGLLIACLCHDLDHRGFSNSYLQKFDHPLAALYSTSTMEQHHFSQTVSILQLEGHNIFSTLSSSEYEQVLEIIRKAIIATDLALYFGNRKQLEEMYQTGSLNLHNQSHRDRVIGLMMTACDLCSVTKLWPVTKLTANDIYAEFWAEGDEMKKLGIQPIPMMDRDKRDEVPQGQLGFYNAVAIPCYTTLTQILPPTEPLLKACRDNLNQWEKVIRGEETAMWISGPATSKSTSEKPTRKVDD
# Method Description: In vitro assay PDE10A (SPA, 3H-cAMP)
# Format: biochemical
# Condition Notes: pIC50 corresponds to the −log IC50 expressed in mol/L; read-out: PDE10A2 pIC50 (converted)
Counter-ions that a name gives are not always drawn.
Decision: IC50 beneath 100 nM gives true; IC50 meeting or exceeding 100 nM gives false.

**Query** # TODO verify IC50 < 100 nM strictly for this compound: `COCCOc1ccc(-c2c(C)nc3c(N4CCOCC4)ccnn23)cn1`
**Result** false

**Query** Hi there! Is IC50 for `COC(C)(C)Cc1ccc(-c2c(C)nc3c(N4CCOCC4)cc(C4CC4)nn23)cn1` below 100 nM, do you know?
**Result** false

**Query** Input `CO[C@@H](C)Cn1cc(-c2c(C)nc3c(N4CCOCC4)ccnn23)cn1` ; condition: IC50 strictly below 100 nM. Does it hold?
**Result** true

**Query** Please determine if `COC(C)(C)c1ccc(-c2c(C)nc3c(N4CCOCC4)ccnn23)cn1` is below 100 nM in terms of IC50.
**Result** true

**Query** Lab log: compare recorded IC50 with 100 nM; is it strictly lower for `Cc1nc2c(-c3ccncc3)ccnn2c1-c1cnn(CC(C)C)c1` ?
**Result** true

**Query** Bench note: check whether `COC(C)(C)Cc1ccc(-c2cnc3c(N4CCOCC4)ccnn23)cn1` shows IC50 below 100 nM
**Result** false

**Query** Just wondering, is IC50 of `c1cc(N2CCOCC2)c2ncc(-c3ccc(C4CCOCC4)nc3)n2n1` below 100 nM?
**Result** false

**Query** Regarding `COCCc1cc(-c2c(C)nc3c(N4CCOCC4)ccnn23)ccn1` , kindly confirm whether its IC50 is beneath 100 nM.
**Result** true

**Query** Hello, is IC50 of the following compound strictly smaller than 100 nM? `COCCc1ccc(-c2c(C)nc3c(-c4ccncc4)cc(C4CC4)nn23)cn1`
**Result** false

**Query** Here's an entry: `Cc1nc2c(-c3ccncc3)cc(C3CC3)nn2c1-c1ccc(C2CCOCC2)nc1` . Is its IC50 below 100 nM?
**Result** false

**Query** Given the entry `c1cc(N2CCOCC2)c2ncc(-c3ccc(C4CC4)nc3)n2n1` , would its reported IC50 be below 100 nM?
**Result** false

**Query** Lab note: confirm whether the reported IC50 for this compound is below 100 nM, equality not counting. compound: `CCOC(C)(C)c1ccc(-c2c(C)nc3c(N4CCOCC4)ccnn23)cn1`
**Result** true

**Query** Dear reviewer, please state whether `Cc1nc2c(N3CCOCC3)ccnn2c1-c1ccc(OCC2CC2)nc1` has IC50 strictly beneath 100 nM.
**Result** false

**Query** Confirm or reject: IC50 of `Cc1nc2c(N3CCOCC3)ccnn2c1-c1ccc(N2CCOCC2)nc1` lies strictly below 100 nM
**Result** false

**Query** Find out if reported IC50 for `COCCn1cc(-c2c(C(F)(F)F)nc3c(N4CCOCC4)ccnn23)cn1` is less than 100 nM
**Result** true

**Query** # TODO verify IC50 < 100 nM strictly for this compound: `COC(C)(C)Cn1cc(-c2c(C)nc3c(-c4ccncc4)ccnn23)cn1`
**Result** true

**Query** Report whether reported IC50 is lower than 100 nM (strictly) for COCCOc1ccc(-c2c(C)nc3c(-c4ccncc4)ccnn23)cn1 [compound 21a, hydrochloride salt]
**Result** false

---

# Assay System: UniProtKB O00408
# Sequence (O00408 whole entry): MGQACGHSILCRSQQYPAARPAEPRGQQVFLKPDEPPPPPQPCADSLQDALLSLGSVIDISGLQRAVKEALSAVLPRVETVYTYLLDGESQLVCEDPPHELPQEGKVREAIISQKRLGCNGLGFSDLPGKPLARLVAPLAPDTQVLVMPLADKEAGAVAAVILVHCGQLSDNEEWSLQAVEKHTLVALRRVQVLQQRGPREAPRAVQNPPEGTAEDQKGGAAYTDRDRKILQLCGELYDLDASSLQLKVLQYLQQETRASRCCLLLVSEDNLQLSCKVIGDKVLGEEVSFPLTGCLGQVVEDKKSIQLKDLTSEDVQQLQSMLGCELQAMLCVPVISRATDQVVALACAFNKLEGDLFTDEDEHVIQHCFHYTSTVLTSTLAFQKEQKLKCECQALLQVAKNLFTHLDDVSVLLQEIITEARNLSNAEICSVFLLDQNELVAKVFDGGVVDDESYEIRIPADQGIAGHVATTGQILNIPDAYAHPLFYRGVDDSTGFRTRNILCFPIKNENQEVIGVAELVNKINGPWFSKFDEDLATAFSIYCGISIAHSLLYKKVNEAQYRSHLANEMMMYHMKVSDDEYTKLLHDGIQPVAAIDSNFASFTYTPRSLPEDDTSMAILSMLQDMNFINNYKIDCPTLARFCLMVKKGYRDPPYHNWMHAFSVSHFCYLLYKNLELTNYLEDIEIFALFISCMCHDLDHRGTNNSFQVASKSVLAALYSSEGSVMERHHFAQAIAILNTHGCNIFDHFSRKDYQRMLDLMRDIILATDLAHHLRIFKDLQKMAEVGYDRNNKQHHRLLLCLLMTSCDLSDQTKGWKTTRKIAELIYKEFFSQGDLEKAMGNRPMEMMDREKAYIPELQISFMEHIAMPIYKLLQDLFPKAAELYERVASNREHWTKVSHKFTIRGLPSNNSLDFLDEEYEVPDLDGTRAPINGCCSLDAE
# Method Description: In vitro PDE selectivity assay (SPA), other members of the PDE family (protocols in Table A)
# Type: biochemical
# Condition Notes: hPDE2A; read-out: PDE 2A (expressed as pIC50) (converted)
Provide the reported IC50 of each item.

**Query** Write down measured IC50 (UniProtKB O00408) for this compound. `c1cc(N2CCOCC2)c2ncc(-c3ccc(N4CCOCC4)nc3)n2n1`
**Result** > 10 µM

**Query** State, for UniProtKB O00408, measured IC50 of the compound listed here: `Cc1nc2c(N3CCOCC3)ccnn2c1-c1ccc(N2CCNCC2)nc1`
**Result** > 10 µM

**Query** State IC50 (UniProtKB O00408) of `COCCn1cc(-c2c(C)nc3c(N4CCOCC4)cc(C4CC4)nn23)cn1` .
**Result** 8.51 µM

**Query** Fill in IC50 for `COC(C)(C)Cc1ccc(-c2c(C)nc3c(N4CCOCC4)ccnn23)cn1` tested with UniProtKB O00408.
**Result** > 10 µM

**Query** Check UniProtKB O00408 data and give IC50 for `Cc1nc2c(N3CCOCC3)ccnn2c1-c1ccc(N2CCOCC2)nc1` .
**Result** > 10 µM

**Query** Lab note: UniProtKB O00408 assay, enter IC50 for `Cc1nc2c(-c3ccncc3)ccnn2c1-c1cnn(CC(F)(F)F)c1` here
**Result** > 10 µM

**Query** Find IC50 for `CCc1nc2c(N3CCOCC3)ccnn2c1-c1cnn(CCOC)c1` on UniProtKB O00408 and write it down.
**Result** > 10 µM

**Query** Write IC50 of `COC(C)(C)COc1ccc(-c2c(C)nc3c(N4CCOCC4)ccnn23)cn1` ; system used: UniProtKB O00408
**Result** > 10 µM

**Query** Recall the reported IC50 of `COC(C)(C)Cc1ccc(-c2c(C3CC3)nc3c(-c4ccncc4)ccnn23)cn1` when tested on UniProtKB O00408.
**Result** 6.92 µM

---

# Assay System: Rat recombinant PDE10A (rPDE10A2) (Rattus norvegicus)
# Construct: inferred from the Ni metal chelate purification; made in house; host or cells: Sf9 insect cells (baculovirus)
# Method Description: In vitro assay PDE10A (SPA, 3H-cAMP)
# Assay type: biochemical
# Condition Notes: pIC50 corresponds to the −log IC50 expressed in mol/L; read-out: PDE10A2 pIC50 (converted)
Property: IC50 (nM)
// units = nM; emit number, no label

**Query** Indicate its recorded IC50; the molecule in question is COCCOc1cncc(-c2c(C)nc3c(N4CCOCC4)cc(C4CC4)nn23)c1 [compound 42]
**Result** 93.3

**Query** Output IC50 of COC(C)(C)Cc1ccc(-c2c(C)nc3c(-c4ccncc4)cc(C4CC4)nn23)cn1 [compound 40]
**Result** 117

**Query** Identify measured IC50 corresponding to COCCc1ccc(-c2c(C)nc3c(-c4ccncc4)cc(C)nn23)cn1 [compound 24]
**Result** 79.4

**Query** // Input: CCc1ccc(-c2cnc3c(N4CCOCC4)ccnn23)cn1 [compound 109] . Output its IC50 only.
**Result** 251

**Query** Return reported IC50. Input molecule: COCCOc1ccc(-c2c(C3CC3)nc3c(N4CCOCC4)cc(C)nn23)cn1 [compound 74]
**Result** 589

**Query** Answer with reported IC50 of c1cc(-c2ccnn3c(-c4ccc(N5CCOCC5)nc4)cnc23)ccn1 [compound 61]
**Result** 339

**Query** Quote IC50 reported for Cc1nc2c(N3CCOCC3)ccnn2c1-c1ccc(C2CCOCC2)nc1 [compound 27] please.
**Result** 31.6

**Query** Give IC50 for Cc1nc2c(N3CCOCC3)ccnn2c1-c1ccnc(N2CCOCC2)c1 [compound 91]
**Result** 46.8

**Query** Provide only the value of recorded IC50 for COCCn1cc(-c2c(C)nc3c(-c4ccncc4)cc(C4CC4)nn23)cn1 [compound 126]
**Result** 50.1

**Query** Tell us which IC50 value is on record for Cc1nc2c(-c3ccncc3)ccnn2c1-c1cnn(CC(F)(F)F)c1 [compound 135]
**Result** 18.2

**Query** Tell us which IC50 value is on record for COCCc1ccc(-c2cnc3c(-c4ccncc4)ccnn23)cn1 [compound 57]
**Result** 427

**Query** Output IC50 of Cc1nc2c(N3CCOCC3)ccnn2c1-c1cnn(CC(C)C)c1 [compound 35]
**Result** 38

**Query** Note IC50 for the molecule shown: COCC(C)(C)c1ccc(-c2c(C)nc3c(N4CCOCC4)ccnn23)cn1 [compound 4]
**Result** 40.7

**Query** Identify measured IC50 associated with COC(C)(C)Cc1ccc(-c2c(C3CC3)nc3c(-c4ccncc4)ccnn23)cn1 [compound 50]
**Result** 14.5

**Query** Respond only with IC50 recorded for COCCn1cc(-c2c(C)nc3c(-c4ccncc4)ccnn23)cn1 [compound 114]
**Result** 52.5

**Query** Answer with reported IC50 of FC(F)(F)Cn1cc(-c2c(C3CC3)nc3c(-c4ccncc4)ccnn23)cn1 [compound 141]
**Result** 10

**Query** Look up and state reported IC50 for Cc1nc2c(N3CCOCC3)ccnn2c1-c1cnn(CC(F)(F)C2CC2)c1 [compound 128]
**Result** 50.1

**Query** Provide IC50 value for the following molecule: CCc1ccc(-c2c(C)nc3c(N4CCOCC4)cc(C)nn23)cn1 [compound 108]
**Result** 155

**Query** Answer with the recorded IC50 for the molecule listed here: COCCOc1ccc(-c2c(C)nc3c(N4CCOCC4)cc(C4CC4)nn23)cn1 [compound 41]
**Result** 407

**Query** Let me know recorded IC50 for COCCc1ccc(-c2c(OC)nc3c(N4CCOCC4)ccnn23)cn1 [compound 12] , thanks.
**Result** 224

**Query** Please indicate IC50 recorded for COCCCc1ccc(-c2c(C)nc3c(N4CCOCC4)ccnn23)cn1 [compound 2]
**Result** 46.8

**Query** Fill in IC50 for record COCCOc1ccc(-c2c(C3CC3)nc3c(-c4ccncc4)cc(C)nn23)cn1 [compound 72]
**Result** 123

**Query** For the molecule Cc1cc(N2CCOCC2)c2nc(C3CC3)c(-c3ccc(C4CCOCC4)nc3)n2n1 [compound 79] , give its measured IC50 value.
**Result** 263

**Query** Read the entry Cc1nc2c(-c3ccncc3)cc(C3CC3)nn2c1-c1ccc(N2CCOCC2)nc1 [compound 58] and write its reported IC50.
**Result** 186

**Query** Identify the reported IC50 for the following entry. Cc1ccc(-c2c(C)nc3c(N4CCOCC4)ccnn23)cn1 [compound 39]
**Result** 70.8

**Query** For COCCOc1ccc(-c2c(C3CC3)nc3c(-c4ccncc4)ccnn23)cn1 [compound 44] , write its IC50.
**Result** 45.7

**Query** Read the entry COC(C)(C)Cn1cc(-c2c(C)nc3c(N4CCOCC4)ccnn23)cn1 [compound 37] and write its reported IC50.
**Result** 50.1

**Query** Return value of IC50 for input Cc1cc(-c2ccncc2)c2nc(C3CC3)c(-c3ccc(C4CCOCC4)nc3)n2n1 [compound 80] , no commentary.
**Result** 44.7

**Query** Give the value of IC50 reported for the following: COCCOc1ccc(-c2c(C)nc3c(-c4ccncc4)cc(C)nn23)cn1 [compound 49]
**Result** 209

**Query** State its IC50: Cc1cc(N2CCOCC2)c2nc(C3CC3)c(-c3ccc(N4CCNCC4)nc3)n2n1 [compound 100]
**Result** 724

**Query** Give IC50 for the following molecule: COCCn1cc(-c2c(C)nc3c(N4CCOCC4)cc(C4CC4)nn23)cn1 [compound 125]
**Result** 83.2

**Query** Note IC50 for the molecule shown: COCCOc1ccc(-c2cnc3c(N4CCOCC4)ccnn23)cn1 [compound 52]
**Result** 468

**Query** # return recorded IC50 for entry Cc1nc2c(N3CCOCC3)cc(Cl)nn2c1-c1cnn(CC(F)(F)F)c1 [compound 146]
**Result** 52.5

**Query** Using known records, supply IC50 for CCc1ccc(-c2c(C)nc3c(-c4ccncc4)ccnn23)cn1 [compound 83]
**Result** 51.3
